Test system: Saccharomyces cerevisiae
Experiment: protein stability index of tFT-peptide fusion (C-terminal peptide) (PSI (0-1 scale)); higher = more stable (slower turnover)
Conditions: genetic background: wild type; temperature: 30 C
Observable: protein stability index

Sequence Input	Observable	Result
GGRGRRRGGVGG	protein stability index	0.701
RFGRGAGWGLGG	protein stability index	0.66
FGLVAYPLWYIS	protein stability index	0.18
PSFLTGRPISPV	protein stability index	0.677
GKVSVSGRELGG	protein stability index	0.65
PAPPLPLAPPPL	protein stability index	0.771
KKEKKKTKKEKR	protein stability index	0.696
GRCGRFVGAAWG	protein stability index	0.741
ERRQADRHRTTP	protein stability index	0.766
LWVGGVGRVRGV	protein stability index	0.691

###

Test system: Saccharomyces cerevisiae
Assay: protein stability index of tFT-peptide fusion (C-terminal peptide) (PSI (0-1 scale)); higher = more stable (slower turnover)
Settings: genetic background: wild type; temperature: 30 C
Observable: protein stability index

Sequence Input	Measurement Target	Observable	Readout Number
NNSCPQGHPDAR	Saccharomyces cerevisiae	protein stability index	0.757
GWCVGHSVLVVE	Saccharomyces cerevisiae	protein stability index	0.618
VVCGARGDGRCE	Saccharomyces cerevisiae	protein stability index	0.683
VSFRRFKFKVKM	Saccharomyces cerevisiae	protein stability index	0.661
YLQLALFHSIPH	Saccharomyces cerevisiae	protein stability index	0.738
RAPPPPARPALP	Saccharomyces cerevisiae	protein stability index	0.687
PPDRNPANTSCD	Saccharomyces cerevisiae	protein stability index	0.638
KMIVWKESIKRE	Saccharomyces cerevisiae	protein stability index	0.535
PPSPSSLPPPPL	Saccharomyces cerevisiae	protein stability index	0.733
AAMQCSRASTSS	Saccharomyces cerevisiae	protein stability index	0.634
VPASWLRMLAFC	Saccharomyces cerevisiae	protein stability index	0.0534
LLSSPSVSPPPD	Saccharomyces cerevisiae	protein stability index	0.675
ALFCLLLPPPSP	Saccharomyces cerevisiae	protein stability index	0.724
RLPRSPPLPSCR	Saccharomyces cerevisiae	protein stability index	0.726
GSGRRGLMGRKS	Saccharomyces cerevisiae	protein stability index	0.728
GGQGRYSAPPSR	Saccharomyces cerevisiae	protein stability index	0.624
AGAICWFRHILI	Saccharomyces cerevisiae	protein stability index	0.67
LKQNRIKCPWTL	Saccharomyces cerevisiae	protein stability index	0.728
CHPFGLPFMLEF	Saccharomyces cerevisiae	protein stability index	0.721

###

// values below are reported protein stability index
System: Saccharomyces cerevisiae;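 further: PSI is a weighted mean of sequencing reads over stability bins, variants kept only with over 10 reads, mCherry proximal and sfGFP distal, peptide attached via GGGS linker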
Assay: protein stability index of tFT-peptide fusion (C-terminal peptide) (PSI (0-1 scale)); higher = more stable (slower turnover)
Conditions: genetic background: wild type; temperature: 30 C
Observable: protein stability index

Sequence Input	Result
ACACFWVVWVGW	0.378
PSPSTAPPRDQG	0.724
INSSPRSSTLLL	0.686
YKPLKNKDEEMD	0.613
SSDNKGLFDTRI	0.728
SPRLLHPLPSFL	0.711
RGGVGRLEGCRG	0.684
VAVGIEGGWWGV	0.78
LLRRLILLQATW	0.568
GGVRVPRVDVVG	0.618
SRGWLHVVGGQV	0.684
ARPFPPLSPPPP	0.655
GKGDEPKAPTDR	0.65
GRGAGQAGKKKI	0.631
PPNPSTPSACPP	0.717
PLPSCTLCRPAL	0.695
PSSPLPLSVPPL	0.655
GVWLRAVRGFGV	0.738
VGGGGGGGWWHW	0.805
